Cited source: patent US10980238B2

# Test system: bees
# CONDITION: Li-salt 25 mM in sucrose syrup for 7 days; 50 bees per cage; mean of three replicates
Give Number of dead bees, Day 4 for every item shown.
Answers are plain numbers.

Observe how each entry below is paired with its result.
COMPOUND	Number of dead bees, Day 4
CC(O)C(=O)[O-].[Li+] (stereo not shown) [Li-lactate, lithium lactate]	0.7
O=C([O-])[O-].[Li+].[Li+] [Li-carbonate, lithium carbonate]	0.0
O=C([O-])CC(O)(CC(=O)[O-])C(=O)[O-].[Li+].[Li+].[Li+] [Li-citrate, lithium citrate]	0.0

Number of dead bees, Day 4 lookup needed for O=S(=O)([O-])[O-].[Li+].[Li+] [Li-sulfate, lithium sulfate] , thanks.
1.0
